The entries below come with measured pIC50 values attached.
Target: Disintegrin and metalloproteinase domain-containing protein 10 (Homo sapiens, UniProt O14672)
Sequence (O14672 whole entry): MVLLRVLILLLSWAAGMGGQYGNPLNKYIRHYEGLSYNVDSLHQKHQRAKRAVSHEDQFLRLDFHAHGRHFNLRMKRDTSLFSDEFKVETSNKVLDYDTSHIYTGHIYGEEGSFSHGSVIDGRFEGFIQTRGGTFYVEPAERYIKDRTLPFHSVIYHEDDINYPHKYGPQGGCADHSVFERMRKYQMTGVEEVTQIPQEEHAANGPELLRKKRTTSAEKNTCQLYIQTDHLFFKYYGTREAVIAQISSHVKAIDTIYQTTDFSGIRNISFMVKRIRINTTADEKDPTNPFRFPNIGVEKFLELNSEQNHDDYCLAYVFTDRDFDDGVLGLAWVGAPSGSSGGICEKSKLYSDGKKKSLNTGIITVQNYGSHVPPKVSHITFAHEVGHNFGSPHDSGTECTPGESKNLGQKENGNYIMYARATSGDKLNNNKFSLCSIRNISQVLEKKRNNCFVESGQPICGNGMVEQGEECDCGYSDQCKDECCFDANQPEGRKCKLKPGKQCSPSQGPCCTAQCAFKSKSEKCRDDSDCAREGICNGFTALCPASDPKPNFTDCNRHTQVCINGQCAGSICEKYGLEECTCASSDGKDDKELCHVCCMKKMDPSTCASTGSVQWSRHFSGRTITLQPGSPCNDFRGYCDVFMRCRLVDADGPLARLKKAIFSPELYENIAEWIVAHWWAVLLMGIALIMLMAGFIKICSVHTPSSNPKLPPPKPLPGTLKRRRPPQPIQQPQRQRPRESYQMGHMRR
Scale note: pIC50 = -log10(concentration in M).

CC(NC(=O)/C(=C\c1ccco1)NC(=O)c1ccco1)C(=O)O (centres undefined); 4.98

# pIC50 of CNC(=O)[C@H](Cc1c[nH]c2ccccc12)NC(=O)[C@@H](CC(=O)NO)CC(C)C = 8.09

###

biological target: Disintegrin and metalloproteinase domain-containing protein 17 (Homo sapiens)
Sequence (P78536 whole entry, the tested form may be a part): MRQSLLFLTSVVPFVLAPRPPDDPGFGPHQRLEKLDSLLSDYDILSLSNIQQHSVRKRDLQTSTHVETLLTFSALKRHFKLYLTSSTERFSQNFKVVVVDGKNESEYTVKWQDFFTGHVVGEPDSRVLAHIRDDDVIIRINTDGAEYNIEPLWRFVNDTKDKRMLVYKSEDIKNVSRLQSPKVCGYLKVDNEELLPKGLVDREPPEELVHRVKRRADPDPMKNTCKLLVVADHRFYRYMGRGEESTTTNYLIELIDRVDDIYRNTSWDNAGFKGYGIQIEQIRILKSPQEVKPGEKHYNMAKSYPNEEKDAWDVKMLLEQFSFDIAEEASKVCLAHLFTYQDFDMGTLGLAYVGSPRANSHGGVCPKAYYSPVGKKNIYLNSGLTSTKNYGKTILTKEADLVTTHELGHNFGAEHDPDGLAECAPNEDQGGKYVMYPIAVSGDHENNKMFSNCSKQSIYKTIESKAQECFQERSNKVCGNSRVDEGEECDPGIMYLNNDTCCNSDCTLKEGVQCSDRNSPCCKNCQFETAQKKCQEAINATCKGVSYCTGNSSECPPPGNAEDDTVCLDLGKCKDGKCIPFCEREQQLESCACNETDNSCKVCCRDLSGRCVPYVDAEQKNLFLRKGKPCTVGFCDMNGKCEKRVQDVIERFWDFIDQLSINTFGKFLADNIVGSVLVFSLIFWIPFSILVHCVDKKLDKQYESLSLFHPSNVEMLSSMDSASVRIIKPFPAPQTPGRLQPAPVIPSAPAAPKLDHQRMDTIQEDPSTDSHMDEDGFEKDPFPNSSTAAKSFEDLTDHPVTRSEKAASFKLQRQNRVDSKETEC
propertyName: IC50
Remember to put the unit after the number in your answer.

Value of measured IC50 for the entry CNC(=O)[C@H](Cc1c[nH]c2ccccc12)NC(=O)[C@@H](CC(=O)NO)CC(C)C : 7.5 nM

###

target: Disintegrin and metalloproteinase domain-containing protein 12 (Homo sapiens, UniProt O43184); assay: Inhibition of A disintegrin and metalloprotease domain 12 (ADAM12) binding in cell based assay
Sequence (O43184 whole entry, the tested form may be a part): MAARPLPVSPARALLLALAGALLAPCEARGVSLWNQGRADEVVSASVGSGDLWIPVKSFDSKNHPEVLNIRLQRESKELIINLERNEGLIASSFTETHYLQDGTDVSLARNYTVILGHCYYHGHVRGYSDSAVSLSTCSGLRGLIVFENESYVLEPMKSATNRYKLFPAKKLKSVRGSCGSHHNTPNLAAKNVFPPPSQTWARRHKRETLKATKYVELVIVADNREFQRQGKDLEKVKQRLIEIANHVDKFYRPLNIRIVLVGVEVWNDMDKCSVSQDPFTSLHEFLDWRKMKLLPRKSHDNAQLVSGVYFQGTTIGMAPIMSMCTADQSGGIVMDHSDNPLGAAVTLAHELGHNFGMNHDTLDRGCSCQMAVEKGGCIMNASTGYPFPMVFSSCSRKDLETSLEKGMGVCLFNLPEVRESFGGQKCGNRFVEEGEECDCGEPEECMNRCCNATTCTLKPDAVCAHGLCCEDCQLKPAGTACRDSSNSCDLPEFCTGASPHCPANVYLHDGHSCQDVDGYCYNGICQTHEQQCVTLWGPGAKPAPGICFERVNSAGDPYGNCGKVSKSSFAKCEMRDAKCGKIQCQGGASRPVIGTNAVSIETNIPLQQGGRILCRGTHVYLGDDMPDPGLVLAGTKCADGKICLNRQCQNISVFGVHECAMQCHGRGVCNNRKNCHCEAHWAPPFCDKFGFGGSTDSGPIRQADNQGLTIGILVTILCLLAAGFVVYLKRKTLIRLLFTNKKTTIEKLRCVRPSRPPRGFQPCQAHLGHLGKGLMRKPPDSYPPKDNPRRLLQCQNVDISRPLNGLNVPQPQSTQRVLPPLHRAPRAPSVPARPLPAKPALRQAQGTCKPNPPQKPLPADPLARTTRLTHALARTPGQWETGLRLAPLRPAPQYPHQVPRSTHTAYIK
Let's look at some compounds and their measured IC50.
Just the number in nM, nothing appended.

Some compounds with known IC50 results, for comparison:
CC(NC(=O)/C(=C\c1ccco1)NC(=O)c1ccco1)C(=O)O (stereo not given); 42.3
CNC(=O)[C@H](Cc1c[nH]c2ccccc12)NC(=O)[C@@H](CC(=O)NO)CC(C)C; 5.93
CC(C)C(NC(=O)/C(=C\c1ccccc1F)NC(=O)c1ccccc1)C(=O)O (stereo not given); 40.5
CC(NC(=O)/C(=C\c1ccc(Br)cc1)NC(=O)c1ccc(Br)o1)C(=O)O (stereo not given); 24.8

Kindly review the next compound as well.
get_value(item= O=C(O)CNC(=O)/C(=C\c1cccc(Br)c1)NC(=O)c1ccco1 , readout=IC50) returns 16.7
